Value source: patent US20250179057A1

assay_info: in vitro
measurement_setup: human, Caco-2, Mean Papp B-A (10^-6 cm/s)
parameter_measured: Papp B→A at 2 h, 10 μM (×10⁻⁶ cm/s)

For orientation, consider the following solved cases.
>>> df
                                   compound      parameter_measured  unit_of_measure  experimental_value
0  CNS(=O)(=O)Nc1nccc(Cc2c(C)c3ccc(Oc4ncccn4)cc3oc2=O)c1F [Reference-2, reference compound]  Papp B→A at 2 h, 10 μM       ×10⁻⁶ cm/s                20.9
1  Cn1cnc2c(F)c(Nc3ccc(Br)cc3Cl)c(C(=O)NOCCO)cc21 [Reference-1, Selumetinib]  Papp B→A at 2 h, 10 μM       ×10⁻⁶ cm/s                28.2

[1] CC(=O)CC(c1ccccc1)c1c(O)c2ccccc2oc1=O (stereo not shown)
[2] CNC(=C[N+](=O)[O-])NCCSCc1ccc(CN(C)C)o1
Inquiry: Problem: Given the entries 1 and 2 , determine which has the lower reported Papp B→A at 2 h, 10 μM. Could you answer with the label of the item you picked?
Reply text: 2
